meta.source: patent US20240300943A1

protocol-text: Hygroscopicity evaluation
Format: physicochemical
setup-conditions: relative humidity 93%, 2 W; in %
outcome-measure: Individual related material
// no unit string in output, number only

Entry C[C@@H]1CN(C(=O)CC#N)CC=C1c1cc(NC(=O)C2CC2)nc2[nH]ccc12 [Example 4] , Individual related material reported as 0.16

Entry C[C@@H]1CN(C(=O)CC#N)CC=C1c1cc(NC(=O)C2CC2)nc2[nH]ccc12 [Example 1] , Individual related material reported as 0.12

Entry C[C@@H]1CN(C(=O)CC#N)CC=C1c1cc(NC(=O)C2CC2)nc2[nH]ccc12 [Example 3] , Individual related material reported as 0.08

Moving on to another molecule below.
Entry C[C@@H]1CN(C(=O)CC#N)CC=C1c1cc(NC(=O)C2CC2)nc2[nH]ccc12 [Example 2] , Individual related material reported as 0.11

====

protocol-text: Hygroscopicity evaluation
Format: physicochemical
setup-conditions: relative humidity 75%, 4 W
outcome-measure: Total related material (%)
Supply the numeric figure in %, leaving out any unit text.

Entry C[C@@H]1CN(C(=O)CC#N)CC=C1c1cc(NC(=O)C2CC2)nc2[nH]ccc12 [Example 1] , Total related material reported as 0.68

Entry C[C@@H]1CN(C(=O)CC#N)CC=C1c1cc(NC(=O)C2CC2)nc2[nH]ccc12 [Example 2] , Total related material reported as 0.61

Entry C[C@@H]1CN(C(=O)CC#N)CC=C1c1cc(NC(=O)C2CC2)nc2[nH]ccc12 [Example 4] , Total related material reported as 1.18

Moving on to another compound below.
Entry C[C@@H]1CN(C(=O)CC#N)CC=C1c1cc(NC(=O)C2CC2)nc2[nH]ccc12 [Example 3] , Total related material reported as 0.39

====

protocol-text: Photostability evaluation
Type: physicochemical
setup-conditions: Solid, UV + Vis Control
We begin with a simple list: items and their reported Individual related material.
Supply the numeric figure in %, leaving out any unit text.

Entry C[C@@H]1CN(C(=O)CC#N)CC=C1c1cc(NC(=O)C2CC2)nc2[nH]ccc12 [Example 1] , Individual related material reported as 0.12

---
Entry C[C@@H]1CN(C(=O)CC#N)CC=C1c1cc(NC(=O)C2CC2)nc2[nH]ccc12 [Example 3] , Individual related material reported as 0.08

Entry C[C@@H]1CN(C(=O)CC#N)CC=C1c1cc(NC(=O)C2CC2)nc2[nH]ccc12 [Example 2] , Individual related material reported as 0.12

Entry C[C@@H]1CN(C(=O)CC#N)CC=C1c1cc(NC(=O)C2CC2)nc2[nH]ccc12 [Example 5] , Individual related material reported as 0.78

Entry C[C@@H]1CN(C(=O)CC#N)CC=C1c1cc(NC(=O)C2CC2)nc2[nH]ccc12 [Example 4] , Individual related material reported as 0.14

====

system-under-test: UniProt:O60674
Sequence (O60674 whole entry, species assumed): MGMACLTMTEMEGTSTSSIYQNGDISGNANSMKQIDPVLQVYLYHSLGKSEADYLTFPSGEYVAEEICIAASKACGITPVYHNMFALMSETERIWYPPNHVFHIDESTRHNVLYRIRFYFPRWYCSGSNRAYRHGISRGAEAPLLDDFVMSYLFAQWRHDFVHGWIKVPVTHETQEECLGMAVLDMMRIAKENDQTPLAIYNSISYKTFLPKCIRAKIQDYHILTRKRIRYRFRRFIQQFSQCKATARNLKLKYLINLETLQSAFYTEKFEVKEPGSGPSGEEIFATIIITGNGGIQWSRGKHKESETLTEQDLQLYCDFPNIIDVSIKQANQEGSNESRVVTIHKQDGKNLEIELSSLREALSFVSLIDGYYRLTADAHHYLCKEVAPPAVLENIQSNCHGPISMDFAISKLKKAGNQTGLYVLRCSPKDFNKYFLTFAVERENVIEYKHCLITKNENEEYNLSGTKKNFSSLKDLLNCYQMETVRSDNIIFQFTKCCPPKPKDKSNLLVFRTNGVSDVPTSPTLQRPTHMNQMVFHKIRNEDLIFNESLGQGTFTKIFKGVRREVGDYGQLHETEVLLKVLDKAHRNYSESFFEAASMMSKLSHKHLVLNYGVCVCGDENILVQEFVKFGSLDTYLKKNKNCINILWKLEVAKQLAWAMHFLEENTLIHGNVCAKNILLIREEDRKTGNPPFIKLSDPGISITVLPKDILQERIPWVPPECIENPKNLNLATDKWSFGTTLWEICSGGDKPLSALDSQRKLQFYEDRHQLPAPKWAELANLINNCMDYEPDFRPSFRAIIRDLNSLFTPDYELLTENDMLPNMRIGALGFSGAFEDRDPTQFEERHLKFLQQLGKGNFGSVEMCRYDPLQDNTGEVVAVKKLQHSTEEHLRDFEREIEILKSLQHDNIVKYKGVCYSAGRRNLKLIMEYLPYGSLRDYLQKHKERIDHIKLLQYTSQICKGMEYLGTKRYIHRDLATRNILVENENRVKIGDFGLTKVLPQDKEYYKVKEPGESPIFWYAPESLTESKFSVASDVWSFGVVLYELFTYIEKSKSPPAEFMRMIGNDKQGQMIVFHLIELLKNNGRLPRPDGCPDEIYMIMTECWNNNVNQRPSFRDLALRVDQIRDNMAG
protocol-text: ADP-Glo JAK2 kinase assay
Assay type: biochemical
setup-conditions: read-out: IC50, In vitro enzyme JAK2
outcome-measure: pIC50
Give only the number. pIC50 is defined as minus log10 of concentration in molar units.

Entry C[C@@H]1CN(C(=O)CC#N)CC=C1c1cc(NC(=O)C2CC2)nc2[nH]ccc12 , pIC50 reported as 7.17

====

protocol-text: Hygroscopicity evaluation
Type: physicochemical
setup-conditions: Initial
outcome-measure: Water (%)
Supply the numeric figure in %, leaving out any unit text.

Some solved cases for reference:
Entry C[C@@H]1CN(C(=O)CC#N)CC=C1c1cc(NC(=O)C2CC2)nc2[nH]ccc12 [Example 1] , Water reported as 3.33

Entry C[C@@H]1CN(C(=O)CC#N)CC=C1c1cc(NC(=O)C2CC2)nc2[nH]ccc12 [Example 4] , Water reported as 0.67

Entry C[C@@H]1CN(C(=O)CC#N)CC=C1c1cc(NC(=O)C2CC2)nc2[nH]ccc12 [Example 3] , Water reported as 0.61

Moving on to another compound below.
Entry C[C@@H]1CN(C(=O)CC#N)CC=C1c1cc(NC(=O)C2CC2)nc2[nH]ccc12 [Example 2] , Water reported as 3.93
